Each recorded value in this set is attributed to paper PMC7582516.

READOUT TYPE: melting point

Entry under review: "Cc1cccc(CN(c2ccc(F)cc2)S(=O)(=O)c2ccc3nnc(C)n3c2)c1" . Reported melting point?
104 to 105 °C

Also need O=c1n(Cc2ccc3c(c2)OCO3)nc2c(S(=O)(=O)N3CCCCC3)cccn12 [Compound 13b] , thanks.
160 to 161 °C

Also need Cc1cccc(Cn2nc3ccc(S(=O)(=O)N4CCC(C)CC4)cn3c2=O)c1 [Compound 13g] , thanks.
145 to 146 °C

Also need O=c1n(Cc2cccc(F)c2)nc2ccc(S(=O)(=O)N3CCSCC3)cn12 [Compound 13i] , thanks.
154 to 155 °C

Also need COc1ccc(CSc2nnc3c(S(=O)(=O)N4CCCCC4)cccn23)cc1 [Compound 15a] , thanks.
169 to 170 °C

Also need O=c1n(Cc2cc(F)cc(F)c2)nc2c(S(=O)(=O)N3CCCCC3)cccn12 [Compound 13c] , thanks.
221 to 222 °C

Also need O=c1n(Cc2ccc(Cl)cc2)nc2ccc(S(=O)(=O)N3CCCCC3)cn12 [Compound 13f] , thanks.
173 to 174 °C

Also need Cc1ccc(CSc2nnc3c(S(=O)(=O)N4CCCCC4)cccn23)cc1 [Compound 15c] , thanks.
155 to 156 °C

Also need O=S(=O)(c1cccn2c(SCc3ccc(F)cc3)nnc12)N1CCCc2ccccc21 [Compound 15f] , thanks.
113 to 115 °C

Also need "COC(=O)c1ccc(CN(c2cccc(C)c2)S(=O)(=O)c2ccc3nnc(C)n3c2)o1" , thanks.
152 to 154 °C

Also need O=S(=O)(c1cccn2c(SCc3ccccc3Cl)nnc12)N1CCCC1 [Compound 15e] , thanks.
164 to 166 °C

Also need O=C1CCCN1c1ccc(Cn2nc3c(S(=O)(=O)N4CCOCC4)cccn3c2=O)cc1 [Compound 13e] , thanks.
258 to 260 °C (dec.)

Also need "Cc1nnc2ccc(S(=O)(=O)N(Cc3cccc(Cl)c3)c3ccc(F)cc3)cn12" , thanks.
107 to 109 °C

Also need "Cc1nnc2ccc(S(=O)(=O)N(Cc3ccc(F)cc3)c3ccc(Cl)cc3)cn12" , thanks.
198 to 199 °C

Also need CC1CCN(S(=O)(=O)c2ccc3nn(Cc4ccccc4F)c(=O)n3c2)CC1 [Compound 13h] , thanks.
150 to 151 °C

* * *

For each record, write down the corresponding melting point.

Entry under review: O=S(=O)(c1cccn2c(SCc3cccc(Cl)c3)nnc12)N1CCCC1 [Compound 15d] . Reported melting point?
143 to 145 °C

Also need O=S(=O)(c1cccn2c(SCc3cccc(Br)c3)nnc12)N1CCCCC1 [Compound 15b] , thanks.
160 to 162 °C

Also need "O=S(=O)(c1cccn2cnnc12)N(Cc1cccc(Cl)c1)c1cc(F)cc(F)c1" , thanks.
160 to 162 °C

Also need O=c1n(Cc2ccc(F)cc2Cl)nc2ccc(S(=O)(=O)N3CCSCC3)cn12 [Compound 13j] , thanks.
190 to 191 °C
